Assignment: determine reported inhibition at 1 µg/mL for the given molecules.
# Test system: NF-κB activation
# EXPERIMENT: NF-κB activation reporter assay (pNFκB-Luc luciferase) under TNF-α stimulation
# Type: cell-based, human
# SETUP_CONDITIONS: Homo sapiens; Concentration of the agent: 1 μg/mL; HepG2 or HeLa cells, TNF-α 40 ng/ml, 4 hours; read-out: The rate of inhibitory activity against NF-κB activation (%)
Write the value in % as a bare number.

State its inhibition at 1 µg/mL on NF-κB activation: Cc1c(NC(=O)c2cc(Cl)ccc2O)cccc1C(F)(F)F [Compound 118] 94.1

# repeat for COc1ccc(O)c(C(=O)Nc2cc(Cl)cc(Cl)c2)c1 [Compound 154] -31

# repeat for CC(C)(C)c1ccc(C(C)(C)C)c(NC(=O)c2cc(Cl)ccc2O)c1 [Compound 159] 89.1

# repeat for O=C(Nc1cc(C(F)(F)F)ccc1F)c1cc(Cl)ccc1O [Compound 112] 93.1

# repeat for O=C(Nc1cc(C(F)(F)F)cc(C(F)(F)F)c1)c1ncccc1O [Compound 27] 68.5

# repeat for COc1cc(NC(=O)c2cc3ccccc3cc2O)cc(OC)c1 [Compound 20] -12.1

# repeat for O=C(Nc1ccccc1C(F)(F)F)c1cc(Cl)ccc1O [Compound 104] 76.2

# repeat for O=C(Nc1cc(C(F)(F)F)ccc1C(F)(F)F)c1cc(Br)ccc1O [Compound 101] 95.7

# repeat for O=C(NN=Cc1ccc(O)cc1O)c1cc(Cl)ccc1O [Compound 15] 15.2

# repeat for O=C(CC(c1ccc(O)cc1)c1ccc(Cl)cc1)c1c(O)cccc1O (centres unmarked) [Compound 4] 42.9

# repeat for Cc1ccc(O)c(C(=O)C=Cc2ccc3c(c2)OCCCO3)c1 [Compound 7] 30.4

# repeat for CCOC(=O)c1sc(NC(=O)c2cc(-n3cccc3)ccc2O)nc1-c1ccccc1 [Compound 222] 74

# repeat for O=C(Nc1cc(C(F)(F)F)cc(C(F)(F)F)c1)c1ccc(O)c(C(=O)Nc2cc(C(F)(F)F)cc(C(F)(F)F)c2)c1 [Compound 82] -8.7

# repeat for Cc1sc(NC(=O)c2cc(Br)ccc2O)nc1-c1ccccc1 [Compound 188] 83.6

# repeat for O=C(Nc1cc(C(F)(F)F)cc(C(F)(F)F)c1)c1cc(-c2cccs2)ccc1O [Compound 72] 79.5

# repeat for CCOC(=O)c1sc(NC(=O)c2cc(Br)ccc2O)nc1C(F)(F)F [Compound 216] 87.6

# repeat for O=C(Nc1cc(C(F)(F)F)ccc1Cl)c1cc(Cl)ccc1O [Compound 113] 94.8

# repeat for O=C(Nc1ccc(O)c(C(=O)Nc2cc(C(F)(F)F)cc(C(F)(F)F)c2)c1)c1ccccc1 [Compound 90] 1

# repeat for O=C(Nc1cccc(Cl)c1)c1cc(Br)ccc1O [Compound 140] 94.2

# repeat for CC(=O)Oc1ccc(Cl)cc1C(=O)Nc1cc(C(F)(F)F)cc(C(F)(F)F)c1 [Compound 96] 96.5

# repeat for O=C(Nc1cc(Cl)cc(Cl)c1)c1c(O)ccc2ccccc12 [Compound 18] 85.3

# repeat for O=C(Nc1cc(Cl)ccc1Cl)c1cc(Cl)ccc1O [Compound 142] 95.1

# repeat for O=C(Nc1cc(Cl)cc(Cl)c1)c1cc(Cl)ccc1O [Compound 147] 84.5

# repeat for COc1cc(Cl)nc(NC(=O)c2cc(Cl)ccc2O)n1 [Compound 43] 25.5

# repeat for COc1ccc(C(F)(F)F)cc1NC(=O)c1cc(Br)ccc1O [Compound 123] 76.6

# repeat for O=C(Nc1ccccc1)Nc1ccc(O)c(C(=O)Nc2cc(C(F)(F)F)cc(C(F)(F)F)c2)c1 [Compound 91] 20.5

# repeat for O=C(Nc1cnc2ccccc2c1)c1cc(Cl)ccc1O [Compound 46] -43.7

# repeat for COc1cc(NC(=O)c2cc(Cl)ccc2O)cc2ccccc12 [Compound 33] 95.1

# repeat for O=C(Nc1cc(Cl)cc(Cl)c1)c1cc([N+](=O)[O-])ccc1O [Compound 152] -56.8

# repeat for O=C(Nc1cc(Cl)cc(Cl)c1)c1cc2ccccc2cc1O [Compound 19] -55.4

# repeat for COc1ccc(O)c(C(=O)Nc2cc(C(F)(F)F)cc(C(F)(F)F)c2)c1 [Compound 77] 30.7

# repeat for O=C(Nc1cc(Cl)cc(Cl)c1)c1cc(I)ccc1O [Compound 149] 85.4

# repeat for CSc1ccc(C(F)(F)F)cc1NC(=O)c1cc(Cl)ccc1O [Compound 125] 94.6

# repeat for O=C(Nc1cc(C(F)(F)F)cc(C(F)(F)F)c1)c1ccccc1O [Compound 48] 93.3

# repeat for O=C(NCc1cc(C(F)(F)F)cc(C(F)(F)F)c1)c1cc(Br)ccc1O [Compound 1] -33.6

---

Assignment: determine reported inhibition at 1 µg/mL for the given compounds.
# System: NF-κB activation
# EXPERIMENT: NF-κB activation reporter assay (pNFκB-Luc luciferase) under TNF-α stimulation
# Format: cell-based, human
# SETUP_CONDITIONS: Homo sapiens; Concentration of the agent: 1 μg/mL; HepG2 or HeLa cells, TNF-α 40 ng/ml, 4 hours; read-out: The rate of inhibitory activity against NF-κB activation (%)
Write the value in % as a bare number.

For the compound `O=C(Nc1nc(-c2ccccc2)c(-c2ccccc2)s1)c1cc(Br)ccc1O` , what inhibition at 1 µg/mL is on record? -5.3

# repeat for `O=C(Nc1cc(Cl)c(Cl)c(Cl)c1)c1cc(Br)ccc1O` 85.6

# repeat for `O=C(Nc1cccc(C(F)(F)F)c1)c1cc(Br)ccc1O` 80.7

# repeat for `O=C(Nc1c(F)c(F)c(F)c(F)c1F)c1cc(Cl)ccc1O` 86.2

# repeat for `COc1ccc(OC)c(NC(=O)c2cc(Br)ccc2O)c1` 32.4

# repeat for `O=C(Nc1cccc(C(F)(F)F)c1F)c1cc(Cl)ccc1O` 92.3

# repeat for `O=C(Nc1ccc([N+](=O)[O-])c(C(F)(F)F)c1)c1cc(Cl)ccc1O` 89

# repeat for `COc1cc(NC(=O)c2cc(Br)ccc2O)cc(OC)c1` 38.3

# repeat for `CCOC(=O)c1c(NC(=O)c2cc(Cl)ccc2O)sc2c1CCCC2` 88.2

---

Assignment: determine reported inhibition at 1 µg/mL for the given compounds.
# Tested on: NF-κB activation
# EXPERIMENT: NF-κB activation reporter assay (pNFκB-Luc luciferase) under TNF-α stimulation
# Assay type: cell-based, human
# SETUP_CONDITIONS: Homo sapiens; Concentration of the agent: 1 μg/mL; HepG2 or HeLa cells, TNF-α 40 ng/ml, 4 hours; read-out: The rate of inhibitory activity against NF-κB activation (%)
Write the value in % as a bare number.

For the compound `Cc1cnc(NC(=O)c2cc(Br)ccc2O)s1` , what inhibition at 1 µg/mL is on record? -1.5

# repeat for `C[Si](C)(C)C#Cc1ccc(O)c(C(=O)Nc2cc(C(F)(F)F)cc(C(F)(F)F)c2)c1` 91.1

# repeat for `O=C(Nc1cc(C(F)(F)F)ccc1N1CCCC1)c1cc(Br)ccc1O` 95.8

# repeat for `O=C(Nc1nc(Cc2ccccc2)c(-c2ccccc2)s1)c1cc(Br)ccc1O` 79.7

# repeat for `O=C(Nc1cc(C(F)(F)F)cc(C(F)(F)F)c1)c1cc(Br)ccc1O` 94.9

# repeat for O=C(Nc1cccc2ccccc12)c1ccccc1O [Compound 31, 2-Hydroxy-N-(1-naphthyl)benzamide] 13.3

# repeat for `O=C(Nc1cc(C(F)(F)F)cc(C(F)(F)F)c1)c1cc(NC(=S)Nc2ccccc2)ccc1O` 51.8

# repeat for `O=C(Nc1cc(Cl)ccc1O)c1cc(Cl)cc(Cl)c1` 68.6

# repeat for `Cc1ccc(O)c(C(=O)Nc2cc(C(F)(F)F)cc(C(F)(F)F)c2)c1` 95.8

# repeat for `COc1ccc(NC(=O)c2cc(Cl)ccc2O)cc1C(F)(F)F` 85.5

# repeat for `O=C(Nc1cc(Cl)c(O)c(Cl)c1)c1cc(Br)ccc1O` 7.3

---

# System: NF-κB activation
# EXPERIMENT: NF-κB activation reporter assay (pNFκB-Luc luciferase) under TNF-α stimulation
# Type: cell-based, human
# SETUP_CONDITIONS: Homo sapiens; Concentration of the agent: 1 μg/mL; HepG2 or HeLa cells, TNF-α 40 ng/ml, 4 hours; read-out: The rate of inhibitory activity against NF-κB activation (%)
Would you please tag the item YES when its inhibition at 1 µg/mL is 80% or above, and NO when it is below?

Evaluate O=C(Nc1cc(C(F)(F)F)ccc1Cl)c1cc(Cl)cnc1O [Compound 25] : inhibition at 1 µg/mL at minimum 80%? YES

# repeat for O=C(Nc1cc(C(F)(F)F)cc(C(F)(F)F)c1)c1nc2ccccc2nc1O [Compound 29] NO

# repeat for CC(=O)Nc1cc(O)c(C(=O)Nc2cc(C(F)(F)F)cc(C(F)(F)F)c2)cc1Cl [Compound 97] NO

# repeat for O=C(Nc1ccc(C(F)(F)F)cc1Cl)c1cc(Br)ccc1O [Compound 129] NO

# repeat for Cc1cc(C)cc(NC(=O)c2cc(Br)ccc2O)c1 [Compound 161] YES

# repeat for O=C(Nc1nc(-c2ccccc2)cs1)c1cc(Br)ccc1O [Compound 202] NO

# repeat for COc1cc(NC(=O)c2cc(Cl)ccc2OC(C)=O)cc2ccccc12 [Compound 34] YES

# repeat for Cc1nc(NC(=O)c2cc(Br)ccc2O)sc1C [Compound 187] NO

# repeat for O=C(Nc1cc([N+](=O)[O-])cc([N+](=O)[O-])c1)c1cc(Br)ccc1O [Compound 158] YES

# repeat for O=C(Nc1cc(Cl)cc(Cl)c1)c1ccccc1O [Compound 145] YES
